target: SCRIB_4, Q14160; experiment: holdup assay; design: key: below the threshold = too weak to quantify, mostly under pKd 3.1 to 4; conditions: plain residues with an end cap or a label only (N-terminal biotin on a linker: ttds)
Sequence (Q14160 1095-1204): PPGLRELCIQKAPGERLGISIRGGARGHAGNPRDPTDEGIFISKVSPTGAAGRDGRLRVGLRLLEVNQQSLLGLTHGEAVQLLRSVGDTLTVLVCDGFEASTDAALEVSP
Reported pKd values follow for various binders
// print number alone

Consider the reported pKd for these binders:
INSERT INTO results (binder, result) VALUES
  ('SSLQSLETSV [ATP2B4, P23634]', 4.38),
  ('RLPKIKETTV [FRMPD4, Q14CM0]', 4.85);

What the record says about SKPTRRETEV [HPV35-E6, P27228] : pKd is 3.78

Measured pKd of RHTTSTETAV [HPV30-E6, P36809] : 4.59
